Entry source: ChEMBL document CHEMBL6096672

assay-notes: Half life in IV-dosed dog
Assay type: ADME, Canis lupus familiaris
condition-parameters: in vivo
assay-readout: half-life (h)

[
  {
    "smiles-string": "CCn1nc(-c2cnc(N)c(OC(F)F)c2)c2ccn([C@@H]3CCC(F)(F)C[C@@H]3OC)c(=O)c21",
    "quantitative-readout": 6.6
  }
]

----------
assay-notes: Half life in mouse at 5 mg/kg, po
Type: ADME, organism-based
condition-parameters: in vivo
Quick reference: half-life of the listed items.
assay-readout: half-life (min)

[
  {
    "smiles-string": "CCc1nc(-c2cnc(N)c(OC(F)F)c2)c2ccc([C@H]3COCCN3C)cn12",
    "quantitative-readout": 18
  },
  {
    "smiles-string": "CCc1nc(-c2cnc(N)c(OC(F)(F)F)c2)c2ccc([C@H]3COCCN3C)cn12",
    "quantitative-readout": 48
  },
  {
    "smiles-string": "CCc1nc(-c2cnc(N)c(C(F)(F)F)c2)c2ccc(C3CCN(C)CC3)cn12",
    "quantitative-readout": 228
  },
  {
    "smiles-string": "CCc1nc(-c2cnc(N)c(C(F)(F)F)c2)c2ccc([C@H]3COCCN3C)cn12",
    "quantitative-readout": 36
  }
]

----------
assay-notes: Clearance in mouse at 5 mg/kg, po
Format: ADME, organism-based
condition-parameters: in vivo
Quick reference: CL/F of the listed items.

[
  {
    "smiles-string": "CCc1nc(-c2cnc(N)c(C(F)(F)F)c2)c2ccc([C@H]3COCCN3C)cn12",
    "CL/F, mL/min/kg": 68
  },
  {
    "smiles-string": "CCc1nc(-c2cnc(N)c(OC(F)(F)F)c2)c2ccc([C@H]3COCCN3C)cn12",
    "CL/F, mL/min/kg": 40
  },
  {
    "smiles-string": "CCc1nc(-c2cnc(N)c(C(F)(F)F)c2)c2ccc(C3CCN(C)CC3)cn12",
    "CL/F, mL/min/kg": 43
  },
  {
    "smiles-string": "CCc1nc(-c2cnc(N)c(OC(F)F)c2)c2ccc([C@H]3COCCN3C)cn12",
    "CL/F, mL/min/kg": 109
  }
]

----------
assay-notes: Energy of neutralization, pKa of compound
Type: physicochemical
Classification field: Fulfilled = pKa at or over 8; Not fulfilled = pKa under 8.

[
  {
    "smiles-string": "CCc1nc(-c2cnc(N)c(C(F)(F)F)c2)c2ccc(CN3CCOCC3)cn12",
    "assigned-category": "Not fulfilled"
  },
  {
    "smiles-string": "CCc1nc(-c2cnc(N)c(C(F)(F)F)c2)c2ccc(C3(F)CCN(C)CC3)cn12",
    "assigned-category": "Fulfilled"
  },
  {
    "smiles-string": "CCc1nc(-c2cnc(N)c(C(F)(F)F)c2)c2ccc([C@H]3CN(C)CCO3)cn12",
    "assigned-category": "Not fulfilled"
  },
  {
    "smiles-string": "CCc1nc(-c2cnc(N)c(OC(F)(F)F)c2)c2ccc(C3(N4CCOCC4)CC3)cn12",
    "assigned-category": "Not fulfilled"
  },
  {
    "smiles-string": "CCc1nc(-c2cnc(N)c(OC(F)(F)F)c2)c2ccc([C@H]3COCCN3C)cn12",
    "assigned-category": "Not fulfilled"
  },
  {
    "smiles-string": "CCc1nc(-c2cnc(N)c(C(F)(F)F)c2)c2ccc(C3CCN(C)CC3)cn12",
    "assigned-category": "Fulfilled"
  }
]
